- Test system: RPMI-8226 leukemia
- assay.overview: NCI tumour cell line growth inhibition, 48 h; in the data active = GI50 below about 0.43 µM; inactive = the rest
API: response.call in active, inactive

Some solved cases for reference:
>>> df
                    structure_smiles_string  group_label
0  COc1cc(/C(=C2/O[C@@H]([C@H]3COC(C)(C)O3)[C@H]3OC(C)(C)O[C@@H]23)c2ccc3c(c2)OCO3)cc(OC)c1OC     inactive
1  Nc1nccc2c1ccn2-c1cccc(NC(=O)c2ccc(N3CCOCC3)c(C(F)(F)F)c2)c1     inactive
2  C[C@@H](Oc1cc(-n2cnc3ccc(OCC4CCN(C)CC4)cc32)sc1C(N)=O)c1ccccc1Cl       active
3  NC(=O)c1sc(-n2cnc3ccc(C(F)(F)F)cc32)cc1OCc1ccccc1Br     inactive

Recorded test outcome, item CC(=O)Nc1ccc(-c2csc(Nc3cccc(-c4csc(-c5ccccc5)n4)c3)n2)cc1
inactive

Recorded test outcome, item Cc1ccc2nc3c(n2c1)C(=O)C(=O)c1ccccc1-3
active

Recorded test outcome, item COc1ccc(/C=C\c2cc(OC)c(OC)c(OC)c2)cc1OCC(=O)Nc1nc2ccccc2s1
inactive

Recorded test outcome, item COc1cc(C(=O)O/N=C(\N)Cc2cccc3ccccc23)cc(OC)c1OC
inactive

Recorded test outcome, item COc1ccc(-n2cc(-c3cc(OC)c(OC)c(OC)c3)[nH]c2=S)cc1Cl
inactive
